target_under_test: SARS-CoV-2 Main Protease (SARS-CoV-2) (UniProt P0DTD1)
test_parameters: 50.0 µM
recorded_metric: inhibition

> print(dat)
                                    compound  result
 1         O=C1C(=O)N(Cc2ncon2)c2ccc(Br)cc21   -2.4%
 2  Cc1ccncc1N(C)C(=O)[C@@H]1C[C@H]1CF (stereo in doubt)   1.67%
 3      CC(C)NC1CCN(c2ccc(S(N)(=O)=O)cc2)CC1  -1.56%
 4  C=CC(=O)N(c1ccc(C(C)(C)C)cc1)C(C(=O)NCC1CCOC1)c1cccnc1 (stereo unspecified)   41.3%
 5             Cc1ccncc1NC(=O)Cc1cccc(C#N)c1   58.3%
 6  CC(NC(=O)C(Cc1ccccc1)NC(=O)c1ccco1)c1ncco1 (stereo unspecified)    -28%
 7  C=CC(=O)N(c1ccc2c(ccn2C)c1)C(C(=O)NC(C)(C)C)c1cccnc1 (stereo unspecified)    -18%
 8  C=CC(=O)N(c1ccc(CC)c(I)c1)C(C(=O)NC(C)(C)C)c1cccnc1 (stereo unspecified)   20.7%
 9  C=CC(=O)N(c1ccc(C(F)(F)F)cc1)C(C(=O)Nc1c(C)cccc1CC)c1cccnc1 (stereo unspecified)   38.6%
10  Cn1cc(NC(=O)N(Cc2ccco2)CC2CCCO2)c2ccccc2c1=O (stereo unspecified)  0.168%
11             N#Cc1cnn(C(=O)c2cccs2)c1C1CC1     69%

---

Quick reference for inhibition among some molecules
target_under_test: UniProtKB P0DTD1
test_parameters: 50.0 µM
recorded_metric: inhibition (%)

> print(dat)
                                    molecule  unit.of.measure  quantitative.result
 1  C[C@H]1CN(Cc2ccccc2)CC[C@@H]1NC(=O)C(=O)NCc1ccccc1CN1CCCC[C@@H]1C (stereo in doubt)                %                    0
 2          NS(=O)(=O)c1ccc(N2CCC(CO)CC2)cc1                %                 2.83
 3                     O=C1Nc2ccc(Br)cc2C1=O                %                 66.1
 4  C=CC(=O)N(c1cc(C(C)(C)C)on1)C(C(=O)NCCc1cccc(F)c1)c1cncc(C)c1 (stereo unspecified)                %                    0
 5  Cc1ncncc1NC(=O)C(c1cccc(Cl)c1)C(C)C (stereo unspecified)                %                 46.5
 6                  Cc1ncncc1NC(=O)Nc1ccccc1                %                 20.1
 7  Cn1nncc1CC(=O)NC(c1ccccc1)c1nc2ccccc2n1C (stereo unspecified)                %                    0
 8  O=C(NC1CCCCC1NC(=O)c1ccncc1)c1ccccc1 (stereo unspecified)                %                    0
 9  CNCCN(C)C(=O)C(=O)N1Cc2ccccc2C(c2ccccc2)C1 (stereo unspecified)                %                    0
10  Cc1ccncc1NC(=O)Cc1cc(Cl)cc(NS(N)(=O)=O)c1                %                 87.9
11  CCCSCC(=O)C(C#N)C(=O)Nc1ccc(F)cc1F (stereo unspecified)                %                 3.54

---

target_under_test: UniProt P0DTD1
test_parameters: 50.0 µM
recorded_metric: inhibition (%)

> print(dat)
                                   molecule  quantitative.result
1  Cc1ccc(S(=O)(=O)Nc2c(-c3cccnc3)nc3ccccn23)c(C)c1                    0
2  C=CC(=O)N(c1ccc(CC)c(I)c1)C(C(=O)NC(C)(C)C)c1cccnc1 (stereo unspecified)                 9.38
3  CC1(C)CC(C(=O)Nc2nncn2C2CC2)c2ccccc2O1 (stereo unspecified)                    0
4  COc1cccc(CNC(=O)N2CCN(C(=O)N3CCCCC3)CC2)c1                    0
5        Cn1cc(NC(=O)Nc2ccccn2)c2ccccc2c1=O                    0
6         Cc1cc(C)nc(NC2CCN(C(=O)CCl)CC2)n1                  100

---

Quick reference for relative solubility at 100 uM among some compounds
test_parameters: 100.0 µM
recorded_metric: relative solubility at 100 uM

> print(dat)
                                    compound                recorded.metric  quantitative.result
 1  CNS(=O)(=O)c1ccc(C(C)NC(=O)NC(C)(C)C)cc1 (configuration not stated)  relative solubility at 100 uM                    1
 2  O=C1CC[C@@H](C(=O)Nc2cccc(Cl)c2)CN1 (stereo in doubt)  relative solubility at 100 uM                    1
 3  Cc1ccc(NC2CCN(c3ccc(S(N)(=O)=O)cc3)CC2)cc1  relative solubility at 100 uM                 0.84
 4  C=CC(=O)N(c1ccc(C(C)(C)C)cc1)C(C(=O)NC(C)CC)c1cccnc1 (configuration not stated)  relative solubility at 100 uM                    1
 5  O=C(NCCc1cccc2ccccc12)c1cc(=O)[nH]c2ccccc12  relative solubility at 100 uM                 0.73
 6   Cn1cnnc1CNC(=O)Nc1cc(C(F)(F)F)c[nH]c1=O  relative solubility at 100 uM                    1
 7    CC(=O)NCCc1cn(CC(=O)N2CCOCC2)c2ccccc12  relative solubility at 100 uM                 0.96
 8             Cc1cc(CC(=O)Nc2cnccc2C)[nH]n1  relative solubility at 100 uM                    1
 9  O=C(CCl)Nc1nc2c(S(=O)(=O)NCCc3ccccc3)cccc2s1  relative solubility at 100 uM                 0.66
10      O=C(NCCN1CCN(c2ccccc2)CC1)NCc1ccccn1  relative solubility at 100 uM                 0.99
11                  Cc1ncncc1NC(=O)Nc1ccccc1  relative solubility at 100 uM                 0.99
12        Cc1noc(C)c1CS(=O)(=O)Cc1cccc(Cl)c1  relative solubility at 100 uM                    1

---

test_parameters: 20.0 µM
Quick reference for relative solubility at 20 uM among some compounds
recorded_metric: relative solubility at 20 uM

> print(dat)
                                    compound  result
 1  O=C1CC[C@H](C(=O)Nc2cccc(Br)c2)N1 (stereo in doubt)       1
 2  O=C(NCC1COc2ccccc2O1)c1cc(=O)[nH]c2ccc(F)cc12 (stereo not drawn)       1
 3  C=CC(=O)N1CCN(S(=O)(=O)c2ccccc2-c2ccc(Nc3ccc(C#N)cn3)cc2)CC1    0.75
 4         CN(C)C/C=C/C(=O)Nc1c[nH]c2ccccc12       1
 5  COc1ccc(C2CC(c3cccs3)=NN2C(=O)CCl)cc1OC (stereo not drawn)    0.95
 6         Cn1cncc1CNC(=O)Nc1cccc(OCC(F)F)n1       1
 7  CCO[C@@H]1C[C@H]1C(=O)Nc1cnccc1C (stereo in doubt)       1
 8  Cc1nn(-c2ccccc2)c(Nc2cccc(C(F)(F)F)c2)c1NS(C)(=O)=O    0.95
 9  Cc1ccncc1NC(=O)C(C)c1cccc(C#N)c1 (stereo not drawn)       1
10    NS(=O)(=O)c1ccc(N2CCC(N3CCCCC3)CC2)cc1       1
11  O=C(CCl)Nc1nc2c(S(=O)(=O)NCCc3ccccc3)cccc2s1    0.89
12               O=C(Nc1ccccc1)c1cc(Cl)ccc1O       1
13         COc1ccnc(NC(=O)Cc2ccc3ccccc3c2)c1    0.95
14       Cc1ccc(C)c(N(C)C(=O)Cc2cnn(C)c2C)c1    0.97
15  COC(=O)C(c1ccccc1Cl)N1CCc2sccc2C1 (stereo not drawn)    0.97
16  O=C1CC[C@@H](C(=O)Nc2cccc(Cl)c2)CN1 (stereo in doubt)       1
17  CN(C)c1ccc(N(Cc2ccsc2)C(=O)Cn2nnc3ccccc32)cc1    0.92
18          Cc1ccnc(NC(=O)Cc2ccc3ccccc3c2)c1    0.98
19  CCCN(CC1COc2ccccc2O1)C(=O)c1cc(=O)[nH]c2cc(F)ccc12 (stereo not drawn)    0.98
20  C=CC(=O)N(c1ccc2ncsc2c1)C(C(=O)Nc1ccc(Br)cc1)c1cccnc1 (stereo not drawn)    0.75
21  Cc1ccncc1NC(=O)CN(C)S(=O)(=O)c1cccc2cccnc12    0.99
22            Cc1cccc(CC2CCN(C(=O)CCl)CC2)c1       1
23  O=C1CC(Oc2cccc(C(=O)NCc3cncnc3)c2)N1 (stereo not drawn)       1
